Each record here notes measured %Inh.
Tested on: JAK3(JH1domain-catalytic)
Conditions: concentration: 1 μM, replicates: in singlicate; n = 1;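 also: KINOMEscan kinase panel screen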
Just the number please, in %, no unit attached.

Worked set:
molecule	%Inh (%)
COc1ccc(Nc2nccc(N3CCC(NS(=O)(=O)c4ccc(NC(C)=O)cc4)C3)n2)cc1 (stereo not shown)	5
CCCC(=O)Nc1n[nH]c2ncc(-c3cccc4ccccc34)cc12	0
Cc1cccc(-c2nc(Nc3ccc4c(cnn4C)c3)c3ccccc3n2)n1	0

// switching to the query molecule
**Q:** Read off the recorded %Inh for O=C1NC(=O)C(c2ccccc2)=C1Nc1cccc(O)c1
**A:** 0

---

Each record here notes measured %Inh.
Test system: EPHA5
Conditions: concentration: 1 μM, replicates: in singlicate; n = 1
Just the number please, in %, no unit attached.

Worked set:
molecule	%Inh / %
Cc1nnc(-c2ccc3ncn(-c4ccc(S(C)=O)cc4)c3c2)o1 (stereo not shown)	17
COc1cc2nccc(Nc3cccc(Oc4ccccc4)c3)c2cc1OC.Cl [GW284543]	0
O=C(Nc1n[nH]c2cc(-c3ccccc3F)ccc12)C1CC1 [SB-733371]	0
COC(=O)c1c(-c2ccccc2)c2cc(Br)ccc2c(=O)n1Cc1ccc(NC(=O)CCC(=O)O)cc1	7
COc1cccc(-n2cnc3c(N)ncnc32)c1 [SKF-97416]	3
CCn1c(-c2ccoc2)nc2cnccc21 [SB-733887]	0
O=C(NCc1cccs1)c1cc(C(=O)c2c(Cl)cccc2Cl)c[nH]1 [GW823670]	0
COc1cc(OC)cc(-c2cc3cnc(N)nc3nc2NC(=O)NC(C)(C)C)c1	0
FC(F)(F)c1ccc(-c2ncn(CCCN3CCOCC3)c2-c2ccncc2)cc1 [SB-217780]	0
Nc1nccc2scc(-c3ccc4c(c3)CCN4C(=O)Cc3ccccc3)c12 [GSK2576924]	0

**Q:** Read off the recorded %Inh for COc1cccc(C2=C(Nc3cccc(C(=O)O)c3)C(=O)NC2=O)c1 [SB-390770]
**A:** 0

**Q:** Read off the recorded %Inh for Cl.NS(=O)(=O)c1cccc(Nc2cc(-c3ccc(F)cc3)n[nH]2)c1 [GW824645]
**A:** 0

**Q:** Read off the recorded %Inh for COc1cc(Nc2nccc(N3CCC(NC(=O)C(C)c4ccc(Cl)cc4)C3)n2)cc(OC)c1OC (stereo not shown) [GSK1379757]
**A:** 0

**Q:** Read off the recorded %Inh for Nc1nc(-c2ccccc2F)c(-c2ccnc3ccccc23)s1 [GW560459]
**A:** 0

**Q:** Read off the recorded %Inh for Nc1ncnc2c1ncn2-c1ccc(Cl)cc1 [AH2635]
**A:** 0

**Q:** Read off the recorded %Inh for COc1ccc(Nc2nccc(N3CCC(NS(=O)(=O)c4ccc(NC(C)=O)cc4)C3)n2)cc1 (stereo not shown) [GSK1379729]
**A:** 7

**Q:** Read off the recorded %Inh for COc1cc2ncn(-c3cc(OCc4ccncc4)c(C(N)=O)s3)c2cc1OC [GSK336313]
**A:** 0

**Q:** Read off the recorded %Inh for Nc1n[nH]c2ncc(-c3ccccc3)cc12 [SB-517081]
**A:** 0

**Q:** Read off the recorded %Inh for CCn1c(-c2nonc2N)nc2ccccc21 [SB-693162/GW549034]
**A:** 0

---

Each record here notes measured %Inh.
Test system: GRK2
Construct: gene ADRBK1
Details: concentration: 1 μM, replicates: in singlicate; n = 1
Just the number please, in %, no unit attached.

Worked set:
smilesData	measuredAttribute	experimentalValue
CCC(=O)c1c(-c2ccccc2)c2cc(Cl)ccc2c(=O)n1Cc1cc(S(C)(=O)=O)n(CCC(C)(C)O)n1	%Inh	0
COC(=O)c1c(-c2ccccc2)c2cc(Br)ccc2c(=O)n1Cc1ccc(NC(=O)CCC(=O)O)cc1	%Inh	19
Cc1cccc(-c2cc(-c3c[nH]nc3-c3ccccn3)ccn2)c1	%Inh	0

**Q:** With GRK2 as the test system, provide measured %Inh for this compound: Cc1ccccc1COc1cc(-n2cnc3cc(Cl)ccc32)sc1C(N)=O
**A:** 0

**Q:** With GRK2 as the test system, provide measured %Inh for this compound: Cc1c(Cn2c(C)nn3c(=O)cc(N4CCO[C@H](C)C4)nc23)cccc1C(F)(F)F
**A:** 0

**Q:** With GRK2 as the test system, provide measured %Inh for this compound: O=C(Nc1n[nH]c2nc(-c3ccccc3)c(Br)cc12)C1CC1
**A:** 12

---

System: JAK1(JH2domain-pseudokinase)
Details: concentration: 1 μM, replicates: in singlicate; n = 1
measuredAttribute: %Inh (%)
Just the number please, in %, no unit attached.

Worked set:
molecule	unitName	experimentalValue
Nc1ncnc2c1ncn2-c1ccc(Cl)cc1 [AH2635]	%	0
Fc1cccc(CSc2nnc(-c3ccc4c(c3)CCO4)o2)c1	%	0
OCCCNc1nccc(-c2c(-c3cccc(C(F)(F)F)c3)nn3cc(C(F)(F)F)ccc23)n1 [GW630813]	%	0
Cc1nn2c(=O)cc(N3CCOCC3)nc2n1Cc1cccc(Cl)c1Cl [GSK2342769]	%	0

// switching to the query molecule
**Q:** Read off the recorded %Inh for Cc1nnc(-c2ccc3ncn(-c4ccc(S(C)=O)cc4)c3c2)o1 (centres unmarked)
**A:** 28

---

Test system: PIK3C2G
Settings: concentration: 1 μM, replicates: in singlicate; n = 1
API: label(entry) gives YES if the entry's %Inh is strictly smaller than 3%; on equality or larger values it gives NO.

molecule	answerLabel
Nc1ncnc2c1ncn2-c1cccc2ccccc12 [SKF-97184]	YES
CCS(=O)c1ccc(-c2coc3ccc(-c4nnc(C)o4)cc23)cc1 (stereo not drawn)	NO
Cl.NS(=O)(=O)c1cccc(Nc2cc(-c3ccc(F)cc3)n[nH]2)c1 [GW824645]	YES

**Q:** Is 3% strictly greater than the molecule's reported %Inh? molecule: C[C@@H]1CC[C@H](C(=O)NC2CCCCC2)CN1c1cc(-c2ccc3c(N)n[nH]c3c2)nc(N)n1 [GSK2291363]
**A:** YES

**Q:** Is 3% strictly greater than the molecule's reported %Inh? molecule: COC(=O)c1c(-c2ccccc2)c2cc(Br)ccc2c(=O)n1Cc1ccc(S(C)(=O)=O)cc1
**A:** NO

**Q:** Is 3% strictly greater than the molecule's reported %Inh? molecule: OCCCNc1nccc(-c2c(-c3cccc(C(F)(F)F)c3)nn3cc(C(F)(F)F)ccc23)n1 [GW630813]
**A:** YES

**Q:** Is 3% strictly greater than the molecule's reported %Inh? molecule: CN1C(=O)C(Nc2cc(Cl)c(O)c(Cl)c2)=C(c2ccc(Cl)cc2)C1=O [SB-404321]
**A:** YES

**Q:** Is 3% strictly greater than the molecule's reported %Inh? molecule: COc1cc(Nc2nccc(N3CCC(NC(=O)C(C)c4ccc(Cl)cc4)C3)n2)cc(OC)c1OC (stereo not drawn) [GSK1379757]
**A:** YES

**Q:** Is 3% strictly greater than the molecule's reported %Inh? molecule: COc1cccc(C2=C(Nc3cccc(C(=O)O)c3)C(=O)NC2=O)c1 [SB-390770]
**A:** NO

**Q:** Is 3% strictly greater than the molecule's reported %Inh? molecule: COc1cc2ncn(-c3cc(OCCCc4ccccc4)c(C(N)=O)s3)c2cc1OC [GSK205189]
**A:** YES

**Q:** Is 3% strictly greater than the molecule's reported %Inh? molecule: O=C(Nc1ccc2c(c1)OCO2)NC1CCN(c2ccnc(NCc3ccc(F)cc3)n2)CC1 [GSK1379859]
**A:** YES

**Q:** Is 3% strictly greater than the molecule's reported %Inh? molecule: CCC(=O)c1c(-c2ccccc2)c2cc(Cl)ccc2c(=O)n1Cc1ccc(C(=O)O)cc1
**A:** YES

**Q:** Is 3% strictly greater than the molecule's reported %Inh? molecule: CCCC(=O)Nc1n[nH]c2ncc(-c3cccc4ccccc34)cc12 [SB-642057]
**A:** YES

**Q:** Is 3% strictly greater than the molecule's reported %Inh? molecule: Cn1c(=O)c(F)c(Nc2ccc(I)cc2F)c2c(=O)n(OC[C@H](O)CO)cnc21
**A:** YES

**Q:** Is 3% strictly greater than the molecule's reported %Inh? molecule: CCn1c(-c2ccoc2)nc2cnccc21 [SB-733887]
**A:** YES

**Q:** Is 3% strictly greater than the molecule's reported %Inh? molecule: Cc1c(Cn2c(C)nn3c(=O)cc(N4CCO[C@H](C)C4)nc23)cccc1C(F)(F)F [GSK2373690]
**A:** YES

**Q:** Is 3% strictly greater than the molecule's reported %Inh? molecule: Fc1cccc(CSc2nnc(-c3ccc4c(c3)CCO4)o2)c1
**A:** NO

---

System: NEK3
Settings: concentration: 1 μM, replicates: in singlicate; n = 1
API: label(entry) gives fulfilled if the entry's %Inh is strictly smaller than 20%; on equality or larger values it gives not fulfilled.

compound	targetOrTestSystem	answerLabel
O=C(Nc1n[nH]c2cc(-c3ccccc3F)ccc12)C1CC1	NEK3	fulfilled

**Q:** Is 20% strictly greater than the compound's reported %Inh? compound: COC(=O)c1c(-c2ccccc2)c2cc(C)ccc2c(=O)n1Cc1ccccc1
**A:** not fulfilled

**Q:** Is 20% strictly greater than the compound's reported %Inh? compound: CN1C(=O)C(Nc2ccccc2)=C(c2ccccc2)C1=O
**A:** not fulfilled

**Q:** Is 20% strictly greater than the compound's reported %Inh? compound: COc1ccc(Nc2nccc(N3CCC(NS(=O)(=O)c4ccc(NC(C)=O)cc4)C3)n2)cc1 (centres unmarked)
**A:** fulfilled
